Cited source for all entries: PubChem BioAssay AID1417

# ASSAY_TARGET: Induced myeloid leukemia cell differentiation protein Mcl-1 (Homo sapiens) (UniProt Q07820)
# Sequence (Q07820 whole entry, looked up): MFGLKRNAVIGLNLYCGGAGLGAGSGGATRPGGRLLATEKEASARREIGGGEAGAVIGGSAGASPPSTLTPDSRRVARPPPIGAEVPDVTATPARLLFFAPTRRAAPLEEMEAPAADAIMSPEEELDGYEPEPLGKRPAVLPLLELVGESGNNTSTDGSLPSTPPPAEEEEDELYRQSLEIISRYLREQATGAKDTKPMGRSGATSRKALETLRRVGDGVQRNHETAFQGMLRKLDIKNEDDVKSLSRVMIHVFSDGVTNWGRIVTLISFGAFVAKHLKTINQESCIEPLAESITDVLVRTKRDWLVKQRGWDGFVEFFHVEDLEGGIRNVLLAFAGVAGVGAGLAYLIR
# MEASUREMENT_PROTOCOL: Mcl-1/Noxa binding inhibitor potency, dose response, biochemical, TR-FRET (AID 1417)
# RUN_PARAMETERS: Mcl-1/Noxa peptide interaction, cell-free TR-FRET (terbium/rhodamine), 2 h; measured here: absolute IC50
In this section we review reported IC50 values for a set of compounds.

Which IC50 value belongs to `Cc1ccc2c(c1)c1ccc3c(c1n2C)C(=O)C=CC3=O` ?
< 400 nM

Lab note: next compound to report on.
Which IC50 value belongs to `Cc1sccc1/C=N/NC(=O)c1cccc2ccccc12` ?
> 54000 nM

----------
# ASSAY_TARGET: Induced myeloid leukemia cell differentiation protein Mcl-1 (Homo sapiens)
# MEASUREMENT_PROTOCOL: Mcl-1/Noxa binding inhibitor potency, dose response, biochemical, TR-FRET (AID 1417)
# RUN_PARAMETERS: Mcl-1/Noxa peptide interaction, cell-free TR-FRET (terbium/rhodamine), 2 h; measured here: absolute IC50
MEASURE: IC50

Past entries and their recorded results:
Which IC50 value belongs to `O=c1c(O)cccc2cc(O)c(O)c(O)c12` ?
< 400 nM

Which IC50 value belongs to `Cc1c(O)ccc(/C=N/Nc2nc(-c3cccnc3)nc3ccccc23)c1O` ?
< 400 nM

Which IC50 value belongs to `Cc1ccc(NS(=O)(=O)c2cc([N+](=O)[O-])ccc2NNC(=S)Nc2cccc(Cl)c2)c(C)c1` ?
> 54000 nM

Lab note: next molecule to report on.
Which IC50 value belongs to `Oc1ccc(-c2csc(Nc3ncccn3)n2)cc1O` ?
< 400 nM

----------
# ASSAY_TARGET: Induced myeloid leukemia cell differentiation protein Mcl-1 (Homo sapiens)
# MEASUREMENT_PROTOCOL: Mcl-1/Noxa binding inhibitor potency, dose response, biochemical, TR-FRET (AID 1417)
# RUN_PARAMETERS: Mcl-1/Noxa peptide interaction, cell-free TR-FRET (terbium/rhodamine), 2 h; measured here: absolute IC50
pIC50: −log10 of the molar value.
MEASURE: pIC50

I'm curious: which pIC50 was measured for `CCc1ccc(S(=O)(=O)/N=C2/C=C(Sc3ncn[nH]3)C(=O)c3ccccc32)cc1` tested on Induced myeloid leukemia cell differentiation protein Mcl-1 (Homo sapiens)?
> 6.40

More entries:
I'm curious: which pIC50 was measured for `Cc1ccc(/C=C2\SC(=S)N(/N=C/c3cc([N+](=O)[O-])ccc3O)C2=O)o1` tested on Induced myeloid leukemia cell differentiation protein Mcl-1 (Homo sapiens)?
> 6.40

I'm curious: which pIC50 was measured for `Cc1ccc2c(c1)NC(=O)c1cccnc1N2` tested on Induced myeloid leukemia cell differentiation protein Mcl-1 (Homo sapiens)?
< 4.27

----------
# ASSAY_TARGET: Induced myeloid leukemia cell differentiation protein Mcl-1 (Homo sapiens) (UniProt Q07820)
# MEASUREMENT_PROTOCOL: Mcl-1/Noxa binding inhibitor potency, dose response, biochemical, TR-FRET (AID 1417)
# RUN_PARAMETERS: Mcl-1/Noxa peptide interaction, cell-free TR-FRET (terbium/rhodamine), 2 h; measured here: absolute IC50
In this section we review reported log10 IC50 values for a set of molecules.
Please note: log10 values; quantity IC50; unit nM.

Which log10 IC50 value belongs to `COc1ccc(N/C=C2\C(=O)CCc3c2oc2cc(Cl)c(O)c(Cl)c32)cc1` ?
3.71

Which log10 IC50 value belongs to O=C1CCCC2=C1C(c1ccco1)Nc1ccc3ccccc3c12 (stereo not drawn) ?
3.35

Which log10 IC50 value belongs to `O=C(COc1ccc2ccccc2c1)NNC(=O)c1ccc([N+](=O)[O-])cc1` ?
3.93

Which log10 IC50 value belongs to `COc1ccc(C(=O)N=c2c(C#N)cc3c(=O)n4cccc(C)c4nc3n2Cc2ccco2)cc1` ?
4.14

Which log10 IC50 value belongs to `CSc1ccc(/C=N/Nc2cccc(C(=O)O)c2)cc1` ?
2.95

Which log10 IC50 value belongs to `N=C1S/C(=C\c2ccc(-c3cccc(Cl)c3)o2)C(=O)N1c1nccs1` ?
2.94

Which log10 IC50 value belongs to Cc1ccc2c(c1Cl)NC(C(=O)O)C1CC(Sc3ccccc3[N+](=O)[O-])C(Cl)C21 (stereo not drawn) ?
3.40

----------
# ASSAY_TARGET: Induced myeloid leukemia cell differentiation protein Mcl-1 (Homo sapiens)
# MEASUREMENT_PROTOCOL: Mcl-1/Noxa binding inhibitor potency, dose response, biochemical, TR-FRET (AID 1417)
# RUN_PARAMETERS: Mcl-1/Noxa peptide interaction, cell-free TR-FRET (terbium/rhodamine), 2 h; measured here: absolute IC50
In this section we review reported IC50 values for a set of compounds.

Past entries and their recorded results:
Which IC50 value belongs to `O=C(O)c1cccc(-n2cccc2/C=C2/NC(=O)N(c3ccc(Cl)cc3)C2=O)c1` ?
< 0.4 µM

Which IC50 value belongs to `O=C(N=Nc1c(O)[nH]c2ccc([N+](=O)[O-])cc12)c1cc(-c2ccccc2Cl)nc2ccccc12` ?
< 0.4 µM

Which IC50 value belongs to `COc1ccc(NC(=O)CSc2ncnc3c2sc2ccccc23)c(OC)c1` ?
> 54 µM

Which IC50 value belongs to `CN(C)c1ccc(NC(=O)CN2C(=O)CN=C(c3ccccc3)c3cc(Cl)ccc32)cc1` ?
> 54 µM

Lab note: next compound to report on.
Which IC50 value belongs to `COC(=O)[C@@]1(Cc2ccccc2)[C@H]2c3cc(C(=O)N4CCCC4)n(CCSCCO)c3C[C@H]2CN1C(=O)c1ccccc1` ?
> 54 µM

----------
In this section we review reported pIC50 values for a set of compounds.
# ASSAY_TARGET: Induced myeloid leukemia cell differentiation protein Mcl-1 (Homo sapiens) (UniProt Q07820)
# MEASUREMENT_PROTOCOL: Mcl-1/Noxa binding inhibitor potency, dose response, biochemical, TR-FRET (AID 1417)
# RUN_PARAMETERS: Mcl-1/Noxa peptide interaction, cell-free TR-FRET (terbium/rhodamine), 2 h; measured here: absolute IC50
pIC50 (log units): -log10 of the concentration in mol/L.

Which pIC50 value belongs to `Cc1ccc(OCCCC(=O)Nc2ccccc2C(F)(F)F)cc1` ?
4.36

Which pIC50 value belongs to `CCSc1ncc(/C=N/Nc2ccc([N+](=O)[O-])cc2)n1C` ?
5.67

Which pIC50 value belongs to `CC(/C=C1\SC(=S)N(c2ccc(C(=O)O)cc2)C1=O)=C\c1ccccc1` ?
5.55

Which pIC50 value belongs to `Cc1ccc(-n2c(=O)c3cc4c(=O)n(-c5ccc(C)c(C)c5)c(=O)c4c(C(=O)c4ccc(C(=O)O)cc4)c3c2=O)cc1C` ?
5.37

Which pIC50 value belongs to `CCOc1ccc(N=C2NC(=O)S/C2=C\c2ccc(O)cc2)cc1` ?
5.90

Which pIC50 value belongs to `CCOC(=O)c1sc2nc3c(SCC(=O)O)cc(C(=O)c4cc(F)ccc4O)cn3c(=O)c2c1C` ?
5.65

Which pIC50 value belongs to `CCOc1cc(/C=N/NC(=O)c2ccc(-c3csc(Nc4ccc(C)cc4)n3)cc2)ccc1OCC(=O)O` ?
5.97

Lab note: next compound to report on.
Which pIC50 value belongs to `O=C(N/N=C/c1ccc(-c2ccccc2C(=O)O)o1)c1cccs1` ?
5.10

----------
# ASSAY_TARGET: Induced myeloid leukemia cell differentiation protein Mcl-1 (Homo sapiens) (UniProt Q07820)
# MEASUREMENT_PROTOCOL: Mcl-1/Noxa binding inhibitor potency, dose response, biochemical, TR-FRET (AID 1417)
# RUN_PARAMETERS: Mcl-1/Noxa peptide interaction, cell-free TR-FRET (terbium/rhodamine), 2 h; measured here: absolute IC50
In this section we review reported IC50 values for a set of compounds.

Which IC50 value belongs to `COc1ccc(CCNC(=O)CN(c2ccc(OC)c(OC)c2)S(C)(=O)=O)cc1` ?
> 54000 nM

Which IC50 value belongs to `CCOC(=O)c1cc(-c2ccc(/C=C3/C(=O)NC(=O)C(C#N)=C3C)o2)ccc1Cl` ?
< 400 nM

Which IC50 value belongs to `Cc1ccc(S(=O)(=O)Nc2ccc(N(C)C)cc2)cc1` ?
> 54000 nM

More entries:
Which IC50 value belongs to CN(C)c1ccc(NC(=O)c2cccc(N3C(=O)C4C5C=CC(C5)C4C3=O)c2)cc1 (stereo not drawn) ?
> 54000 nM

Which IC50 value belongs to `CCOC(=O)c1c(C)oc2c1c(CN1CCN(CCO)CC1)c(O)c1ccccc12` ?
< 400 nM

Which IC50 value belongs to COCCn1nnnc1C(c1ccc(O)c(OC)c1)N1CCc2ccccc2C1 (stereo not drawn) ?
< 400 nM

Which IC50 value belongs to O=C(O)CC(CCc1ccccc1)OC1OC(CO)C(O)C(O)C1O (stereo not drawn) ?
< 400 nM

Which IC50 value belongs to `C/C(=N\NC(=O)c1cccc(N/N=C(\C)c2cc(O)ccc2O)c1)c1cc(O)ccc1O` ?
< 400 nM

Which IC50 value belongs to `Cc1ccc(C2=NC(=O)/C(=C/c3cc(O)c(O)c(Br)c3)S2)cc1` ?
< 400 nM

Which IC50 value belongs to `COc1cc(O)c(C(=O)O)c(-c2cc(O)c(O)cc2C)c1` ?
< 400 nM
